ASSAY SYSTEM: T1, cynomolgus (Macaca fascicularis) ST2L extracellular domain with C-terminal His6 tag (Macaca fascicularis (cynomolgus), UniProt Q01638 19-321 (human entry))
T1 construct: also called cyno ST2L-ECD; cynoST2L-ECD
T1 chain: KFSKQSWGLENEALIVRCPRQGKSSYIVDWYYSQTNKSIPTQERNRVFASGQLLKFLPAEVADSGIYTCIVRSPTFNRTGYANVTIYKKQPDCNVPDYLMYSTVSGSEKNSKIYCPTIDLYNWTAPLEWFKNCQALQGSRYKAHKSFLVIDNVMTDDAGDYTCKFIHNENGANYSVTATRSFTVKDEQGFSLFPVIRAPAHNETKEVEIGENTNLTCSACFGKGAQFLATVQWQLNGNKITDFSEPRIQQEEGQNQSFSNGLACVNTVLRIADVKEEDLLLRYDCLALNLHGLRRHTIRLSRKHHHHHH
ASSAY PROTOCOL: SPR, mAb captured, ST2L-ECD in solution
Here, each record is paired with measured kon data.
Field format: number, assumed M⁻¹ s⁻¹, no unit text.

# annotated cases, reported kon shown
BINDER	kon [M⁻¹ s⁻¹]
STLM215 (antibody, V domains shown, frameworks VH3-23 / Vk-L6) VH: EVQLLESGGGLVQPGGSLRLSCAASGFTFSSYDMFWVRQAPGKGLEWVSAIAGEGGRTYYADSVKGRFTISRDNSKNTLYLQMNSLRAEDTAVYYCARDPWSTEGSFFVLDYWGQGTLVTVSS VL: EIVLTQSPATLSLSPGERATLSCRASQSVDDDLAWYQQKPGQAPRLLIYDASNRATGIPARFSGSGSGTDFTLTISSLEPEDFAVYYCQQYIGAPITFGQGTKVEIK	3.54e+07
STLM219 (antibody, V domains shown, frameworks VH3-23 / Vk-L6) VH: EVQLLESGGGLVQPGGSLRLSCAASGFTFSGYDMFWVRQAPGKGLEWVSDIGGEGGSTNYADSVKGRFTISRDNSKNTLYLQMNSLRAEDTAVYYCARDPWSTEGSFFVLDYWGQGTLVTVSS VL: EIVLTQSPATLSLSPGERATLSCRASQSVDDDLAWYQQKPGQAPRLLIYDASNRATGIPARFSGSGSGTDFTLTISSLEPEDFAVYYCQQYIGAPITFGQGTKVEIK	1.07e+07

// next item, kon requested
Entry under review: STLM212 (antibody, V domains shown, frameworks VH3-23 / Vk-L6) VH: EVQLLESGGGLVQPGGSLRLSCAASGFTFSVYDMIWVRQAPGKGLEWVSTIRGEGGGTYYADSVKGRFTISRDNSKNTLYLQMNSLRAEDTAVYYCARDPWSTEGSFFVLDYWGQGTLVTVSS VL: EIVLTQSPATLSLSPGERATLSCRASQSVDDDLAWYQQKPGQAPRLLIYDASNRATGIPARFSGSGSGTDFTLTISSLEPEDFAVYYCQQYNDAITFGQGTKVEIK . Reported kon?
1.43e+07
